From: patent US12065443B2

This listing pairs molecules with measured pIC50.
# assay.system: SIK3 (Homo sapiens)
# Construct: purchased SignalChem S12-11G-100
# Sequence (Q9Y2K2 whole entry): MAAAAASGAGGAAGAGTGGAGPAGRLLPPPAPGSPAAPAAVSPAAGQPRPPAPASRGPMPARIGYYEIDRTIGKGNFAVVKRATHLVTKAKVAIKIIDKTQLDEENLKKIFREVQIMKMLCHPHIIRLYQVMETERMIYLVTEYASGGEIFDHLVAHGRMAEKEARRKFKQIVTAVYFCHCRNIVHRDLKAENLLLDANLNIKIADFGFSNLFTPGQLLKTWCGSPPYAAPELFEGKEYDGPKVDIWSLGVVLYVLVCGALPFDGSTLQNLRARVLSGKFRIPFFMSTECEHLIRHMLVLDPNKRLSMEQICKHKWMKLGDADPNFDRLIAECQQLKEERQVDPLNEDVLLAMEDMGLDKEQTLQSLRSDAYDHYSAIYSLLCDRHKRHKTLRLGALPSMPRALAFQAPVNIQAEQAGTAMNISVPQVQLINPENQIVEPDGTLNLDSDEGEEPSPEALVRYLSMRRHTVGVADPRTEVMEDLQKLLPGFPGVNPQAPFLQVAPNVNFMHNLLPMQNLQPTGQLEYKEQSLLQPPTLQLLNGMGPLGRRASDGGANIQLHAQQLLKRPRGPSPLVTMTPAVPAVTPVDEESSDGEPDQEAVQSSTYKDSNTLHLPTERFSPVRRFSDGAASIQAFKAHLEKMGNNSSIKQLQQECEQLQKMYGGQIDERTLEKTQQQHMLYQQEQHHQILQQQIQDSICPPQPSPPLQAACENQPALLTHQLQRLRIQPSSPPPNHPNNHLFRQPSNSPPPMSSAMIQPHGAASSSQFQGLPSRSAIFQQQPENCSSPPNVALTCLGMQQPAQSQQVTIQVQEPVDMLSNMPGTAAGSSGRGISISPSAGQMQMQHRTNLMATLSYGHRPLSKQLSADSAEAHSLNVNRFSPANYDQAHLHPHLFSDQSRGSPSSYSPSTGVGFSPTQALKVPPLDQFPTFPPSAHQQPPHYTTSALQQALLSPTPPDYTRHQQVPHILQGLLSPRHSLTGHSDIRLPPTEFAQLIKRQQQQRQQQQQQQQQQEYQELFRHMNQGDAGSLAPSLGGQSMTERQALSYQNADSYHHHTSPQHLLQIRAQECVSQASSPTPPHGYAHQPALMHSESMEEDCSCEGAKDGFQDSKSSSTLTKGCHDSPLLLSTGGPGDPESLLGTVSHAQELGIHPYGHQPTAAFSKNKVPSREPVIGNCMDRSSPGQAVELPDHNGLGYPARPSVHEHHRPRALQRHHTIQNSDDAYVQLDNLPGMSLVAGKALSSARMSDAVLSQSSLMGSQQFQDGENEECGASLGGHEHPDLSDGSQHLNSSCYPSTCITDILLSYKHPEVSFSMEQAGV
# protocol.text: biochemical
# Experimental: The principle of the ^33P radioactive kinase assay consists in measuring the incorporated ^33P into the substrate AMARA peptide when phosphorylated by SIK1, SIK2 or SIK3 using [^33P]-g-ATP, which correlates with kinase activity. […] After harvesting the kinase reactions, the filter plates are washed 6 times with phosphoric acid (75 mM). […] The top of the plates are sealed with TopSeal-A. Read-out is performed with a TopCount instrument (PerkinElmer Inc.).
pIC50: −log10 of the molar value.
reported.metric: pIC50

compound_structure=CCNC(=O)c1c(OC)cc(-c2cnc3cc(-c4cn(C)cn4)ccn23)cc1OC(F)F assay_system="SIK3 (Homo sapiens)" experimental_value="8.00 to 11.00"
compound_structure=COc1cc(-c2cnc3cc(-c4cn(C)nc4C(F)(F)F)ccn23)cc(OC)c1C(=O)NCC(F)(F)F assay_system="SIK3 (Homo sapiens)" experimental_value="7.00 to 8.00"
compound_structure=COc1cc(-n2cnc3cc(-c4cc(C)n[nH]4)ccc32)cc(OC)c1C(=O)NCC(F)(F)F assay_system="SIK3 (Homo sapiens)" experimental_value="8.00 to 11.00"
compound_structure=COCCn1cc(-c2ccc3c(c2)ncn3-c2cc(OC)c(C(=O)NCC(F)(F)F)c(OC)c2)cn1 assay_system="SIK3 (Homo sapiens)" experimental_value="8.00 to 11.00"
